system_tested: Streptokinase A (Streptococcus pyogenes serotype M1, UniProt P10520)
Sequence (P10520 whole entry): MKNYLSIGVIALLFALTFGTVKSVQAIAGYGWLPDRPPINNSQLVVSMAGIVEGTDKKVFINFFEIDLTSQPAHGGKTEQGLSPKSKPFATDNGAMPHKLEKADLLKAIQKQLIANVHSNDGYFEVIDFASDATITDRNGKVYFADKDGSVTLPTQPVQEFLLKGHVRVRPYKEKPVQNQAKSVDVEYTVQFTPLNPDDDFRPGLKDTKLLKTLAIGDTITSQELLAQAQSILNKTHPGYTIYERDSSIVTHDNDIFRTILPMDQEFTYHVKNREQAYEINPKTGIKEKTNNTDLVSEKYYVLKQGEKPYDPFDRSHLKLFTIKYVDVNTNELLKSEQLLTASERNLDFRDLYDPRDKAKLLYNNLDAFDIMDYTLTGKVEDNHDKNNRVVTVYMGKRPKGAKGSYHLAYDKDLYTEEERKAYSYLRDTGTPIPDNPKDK
experiment_description: viability-normalized secreted streptokinase activity reduction – plasminogen activation absorbance, OD405, dose response (AID 1914);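 also: secreted streptokinase activity via plasminogen activation per viability signal from cell pellet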
Type: functional, Streptococcus pyogenes M1 GAS
Calls of active or inactive are those of the source. Rule as the data show it: actives have a measured EC50 and inactives only a lower limit.
property_name: EC50

INSERT INTO results (input_smiles, property_name, val) VALUES
  ('Cc1cccc(C(=O)Nc2scc(-c3ccc(Br)cc3)c2C(=O)O)c1', 'EC50', '> 150 µM (not active)'),
  ('C=C(C)COc1ccc(-c2nc(N)ncc2-c2ccc(Cl)cc2)c(O)c1', 'EC50', '> 150 µM (not active)'),
  ('Cc1ccc(NC(=O)c2[nH]cnc2C(=O)N[C@@H](CCCCNC(=O)OC(C)(C)C)C(=O)OC(C)(C)C)cc1', 'EC50', '> 150 µM (not active)'),
  ('S=C(NCCSCc1ccc(Cl)c(Cl)c1)Nc1ccccc1', 'EC50', '14.4 µM (active)');

Streptokinase A (Streptococcus pyogenes serotype M1, UniProt P10520) EC50 of `COc1cccc(C(=O)Nc2cccc(-c3nnc(-c4ccccc4)o3)c2)c1` is > 150 µM (not active)

Cited source: ChEMBL document CHEMBL1201862
